# Assay overview: Clearance in C57 mouse at 1 mg/kg,iv administration
# Format: ADME, organism-based
# Assay context: in vivo
Observed property: clearance
Don't forget the unit after the number, please.

Fill in the blank: the reported clearance of O=c1ccc2ncc(=O)n3c2n1C[C@H]3CN1CCC(NCc2cc3c(cn2)OCCC3)CC1 is ____. 60 mL/min/kg

Fill in the blank: the reported clearance of N#Cc1ccc2ccc(=O)n(CCN3CCC(NCc4ccc5c(c4)NC(=O)CS5)CC3)c2c1 is ____. 80 mL/min/kg

====

I'd be grateful if you could share measured MRT for these entries.
# Assay overview: MRT in C57 mouse at 1 mg/kg,iv administration
# Type: ADME, organism-based
# Assay context: in vivo
Number only, in h; omit the unit.

Fill in the blank: the reported MRT of O=c1ccc2ncc(=O)n3c2n1C[C@H]3CN1CCC(NCc2cc3c(cn2)OCCC3)CC1 [GEPOTIDACIN] is ____. 1.4

Fill in the blank: the reported MRT of N#Cc1ccc2ccc(=O)n(CCN3CCC(NCc4ccc5c(c4)NC(=O)CS5)CC3)c2c1 is ____. 3

====

# Tested on: Escherichia coli
# Assay overview: Antibacterial activity against Escherichia coli ATCC 25922 assessed as inhibition of bacterial growth
# Type: functional
Observed property: MIC (µg/mL)
Number only, in µg/mL; omit the unit.

Fill in the blank: the reported MIC of O=c1ccc2ccccc2n1CCN1CCC(NCc2cc3c(cn2)OCCC3)CC1 is ____. 16

Fill in the blank: the reported MIC of N#Cc1cnn2ccc(=O)n(CCN3CCC(NCc4cc5c(cn4)OCCC5)CC3)c12 is ____. 2

Fill in the blank: the reported MIC of O=c1ccc2ncc(=O)n3c2n1C[C@H]3CN1CCC(NCc2cc3c(cn2)OCCC3)CC1 is ____. 0.5

Fill in the blank: the reported MIC of N#Cc1ccc2ccc(=O)n(CCN3CCC(NCc4ccc5c(c4)CCCO5)CC3)c2c1 is ____. 0.25

Fill in the blank: the reported MIC of N#Cc1ccc2ccc(=O)n(CCN3CCC(NCc4cc5c(cn4)OCCC5)CC3)c2c1 is ____. 0.5

Fill in the blank: the reported MIC of O=c1ccc2ccc(C(F)(F)F)cc2n1CCN1CCC(NCc2cc3c(cn2)OCCC3)CC1 is ____. 2

Fill in the blank: the reported MIC of CN1C(=O)COc2ccc(CNC3CCN(CCn4c(=O)ccc5ccc(C#N)cc54)CC3)cc21 is ____. 16

Fill in the blank: the reported MIC of N#Cc1ccc2ccc(=O)n(CCN3CCC(NCc4ccc5c(c4)CCCC5)CC3)c2c1 is ____. 1

====

# Assay overview: Volume of distribution at steady state in C57 mouse at 1 mg/kg,iv administration
# Assay type: ADME, organism-based
# Assay context: in vivo, read-out: Vdss
Observed property: Vd (L/kg)
Number only, in L/kg; omit the unit.

Fill in the blank: the reported Vd of O=c1ccc2ncc(=O)n3c2n1C[C@H]3CN1CCC(NCc2cc3c(cn2)OCCC3)CC1 is ____. 5

Fill in the blank: the reported Vd of N#Cc1ccc2ccc(=O)n(CCN3CCC(NCc4ccc5c(c4)NC(=O)CS5)CC3)c2c1 is ____. 14

====

# Assay overview: AUC (0 to t) in C57 mouse at 1 mg/kg,iv administration
# Assay type: ADME, organism-based
# Assay context: in vivo
Observed property: AUC(0-t) (ng·h/mL)
Number only, in ng·h/mL; omit the unit.

Fill in the blank: the reported AUC(0-t) of N#Cc1ccc2ccc(=O)n(CCN3CCC(NCc4ccc5c(c4)NC(=O)CS5)CC3)c2c1 is ____. 206

Fill in the blank: the reported AUC(0-t) of O=c1ccc2ncc(=O)n3c2n1C[C@H]3CN1CCC(NCc2cc3c(cn2)OCCC3)CC1 [GEPOTIDACIN] is ____. 244

====

# Assay overview: Solubility of compound in PBS
# Type: physicochemical
# Assay context: PBS; read-out: solubility
Observed property: solubility (µg/mL)
Number only, in µg/mL; omit the unit.

Fill in the blank: the reported solubility of N#Cc1ccc2ccc(=O)n(CCN3CCC(NCc4ccc5c(c4)NC(=O)CS5)CC3)c2c1 is ____. 611

====

I'd be grateful if you could share measured MIC for these entries.
# Test system: Escherichia coli
# Assay overview: Antibacterial activity against Escherichia coli ATCC 25922 assessed as inhibition of bacterial growth
# Format: functional

// map CCOC(=O)C1COc2ccc(CNC3CCN(CCn4c(=O)ccc5ccc(C#N)cc54)CC3)cc2O1 (stereo unspecified) to recorded MIC (system: Escherichia coli) > 16 µg/mL

// map c1ccc2c(c1)Sc1ccccc1N2CCN1CCC(NCc2cc3c(cn2)OCCC3)CC1 to recorded MIC (system: Escherichia coli) > 16 µg/mL

// map O=S1(=O)c2ccccc2-c2ccccc2N1CCN1CCC(NCc2cc3c(cn2)OCCC3)CC1 to recorded MIC (system: Escherichia coli) > 16 µg/mL

// map c1ccc2c(c1)c1ccccc1n2CCN1CCC(NCc2cc3c(cn2)OCCC3)CC1 to recorded MIC (system: Escherichia coli) > 16 µg/mL

// map N#Cc1ccc2ccc(=O)n(CCN3CCC(NCc4ccc5c(c4)OCC(C(=O)O)O5)CC3)c2c1 (stereo unspecified) to recorded MIC (system: Escherichia coli) > 16 µg/mL

// map O=c1ccn2nccc2n1CCN1CCC(NCc2cc3c(cn2)OCCC3)CC1 to recorded MIC (system: Escherichia coli) 8 µg/mL

====

# Assay overview: Tmax in C57 mouse at 3 mg/kg,po administration
# Format: ADME, organism-based
# Assay context: in vivo
Observed property: Tmax (h)
Number only, in h; omit the unit.

Fill in the blank: the reported Tmax of N#Cc1ccc2ccc(=O)n(CCN3CCC(NCc4ccc5c(c4)NC(=O)CS5)CC3)c2c1 is ____. 3

Fill in the blank: the reported Tmax of O=c1ccc2ncc(=O)n3c2n1C[C@H]3CN1CCC(NCc2cc3c(cn2)OCCC3)CC1 [GEPOTIDACIN] is ____. 2

====

# System under test: Topoisomerase IV (Staphylococcus aureus, UniProt P0C1S7+P0C1U9)
# Sequence (P0C1U9 whole entry): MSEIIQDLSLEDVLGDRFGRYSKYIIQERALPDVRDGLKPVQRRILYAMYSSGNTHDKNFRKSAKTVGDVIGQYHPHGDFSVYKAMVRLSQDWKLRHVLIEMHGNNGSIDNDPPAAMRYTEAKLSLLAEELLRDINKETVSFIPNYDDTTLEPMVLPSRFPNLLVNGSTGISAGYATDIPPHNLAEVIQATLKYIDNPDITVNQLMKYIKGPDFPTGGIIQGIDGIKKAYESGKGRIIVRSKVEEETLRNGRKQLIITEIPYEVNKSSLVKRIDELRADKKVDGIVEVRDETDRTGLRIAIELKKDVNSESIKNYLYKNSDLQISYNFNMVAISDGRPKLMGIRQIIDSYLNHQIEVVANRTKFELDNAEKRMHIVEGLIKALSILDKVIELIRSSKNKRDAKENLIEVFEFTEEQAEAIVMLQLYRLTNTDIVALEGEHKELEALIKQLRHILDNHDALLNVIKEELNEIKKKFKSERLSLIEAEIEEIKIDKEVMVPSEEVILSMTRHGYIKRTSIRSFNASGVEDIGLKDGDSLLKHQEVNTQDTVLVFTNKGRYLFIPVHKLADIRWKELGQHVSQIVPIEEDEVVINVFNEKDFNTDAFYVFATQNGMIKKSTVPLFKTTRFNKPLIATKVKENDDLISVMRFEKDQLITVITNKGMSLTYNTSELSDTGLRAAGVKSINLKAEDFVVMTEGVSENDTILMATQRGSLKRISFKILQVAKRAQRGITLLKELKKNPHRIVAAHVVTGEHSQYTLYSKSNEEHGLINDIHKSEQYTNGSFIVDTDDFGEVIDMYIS
# Sequence (P0C1S7 whole entry): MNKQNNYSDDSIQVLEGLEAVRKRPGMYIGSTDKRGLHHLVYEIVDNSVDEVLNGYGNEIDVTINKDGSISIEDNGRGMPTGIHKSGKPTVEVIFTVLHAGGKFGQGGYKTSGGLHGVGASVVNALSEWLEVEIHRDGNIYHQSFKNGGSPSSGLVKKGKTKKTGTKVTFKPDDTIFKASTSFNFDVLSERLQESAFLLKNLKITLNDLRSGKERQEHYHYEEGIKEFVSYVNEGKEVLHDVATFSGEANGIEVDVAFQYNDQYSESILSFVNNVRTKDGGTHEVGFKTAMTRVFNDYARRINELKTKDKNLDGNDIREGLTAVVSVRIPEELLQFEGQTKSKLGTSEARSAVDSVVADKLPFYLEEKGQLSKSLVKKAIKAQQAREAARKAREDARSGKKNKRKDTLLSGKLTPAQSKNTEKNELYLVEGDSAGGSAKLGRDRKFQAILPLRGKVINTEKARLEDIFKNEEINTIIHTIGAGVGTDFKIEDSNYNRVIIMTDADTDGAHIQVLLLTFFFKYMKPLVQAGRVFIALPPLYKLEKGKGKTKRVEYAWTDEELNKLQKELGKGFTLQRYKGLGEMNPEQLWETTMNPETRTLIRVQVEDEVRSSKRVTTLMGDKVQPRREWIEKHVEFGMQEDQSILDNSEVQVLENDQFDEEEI
# Assay overview: Inhibition of Staphylococcus aureus DNA topoisomerase 4
Observed property: IC50 (nM)
Number only, in nM; omit the unit.

Fill in the blank: the reported IC50 of N#Cc1ccc2ccc(=O)n(CCN3CCC(NCc4ccc5c(c4)NC(=O)CO5)CC3)c2c1 is ____. 1300

Fill in the blank: the reported IC50 of N#Cc1ccc2ccc(=O)n(CCN3CCC(NCc4ccc5c(c4)NC(=O)CS5)CC3)c2c1 is ____. 300

Fill in the blank: the reported IC50 of N#Cc1ccc2ccc(=O)n(CCN3CCC(NCc4ccc5c(c4)OCCO5)CC3)c2c1 is ____. 900

====

# Assay overview: Aqueous solubility of compound
# Assay type: physicochemical
# Assay context: aqueous medium; read-out: solubility
Observed property: solubility (µg/mL)
Number only, in µg/mL; omit the unit.

Fill in the blank: the reported solubility of N#Cc1ccc2ccc(=O)n(CCN3CCC(NCc4ccc5c(c4)NC(=O)CS5)CC3)c2c1 is ____. 719

====

# Tested on: Escherichia coli
# Assay overview: Antibacterial activity against Escherichia coli ATCC 25922 assessed as inhibition of bacterial growth
# Format: functional
Observed property: MIC

Fill in the blank: the reported MIC of O=c1c2ccccc2c2ccccc2n1CCN1CCC(NCc2cc3c(cn2)OCCC3)CC1 is ____. > 16 µg/mL

Fill in the blank: the reported MIC of N#Cc1ccc2ccc(=O)n(CCN3CCC(NCc4ccc5c(c4)NC(=O)CS5)CC3)c2c1 is ____. < 0.125 µg/mL

Fill in the blank: the reported MIC of N#Cc1ccc2ccc(=O)n(CCN3CCC(NCc4ccc5c(c4)OC(C(=O)O)CO5)CC3)c2c1 (stereo unspecified) is ____. > 16 µg/mL

Fill in the blank: the reported MIC of O=S1(=O)C=Cc2ccccc2N1CCN1CCC(NCc2cc3c(cn2)OCCC3)CC1 is ____. > 16 µg/mL

Fill in the blank: the reported MIC of O=c1c2ccccc2c2ncccc2n1CCN1CCC(NCc2cc3c(cn2)OCCC3)CC1 is ____. > 16 µg/mL

Fill in the blank: the reported MIC of O=S1(=O)c2ccccc2N(CCN2CCC(NCc3cc4c(cn3)OCCC4)CC2)c2ccccc21 is ____. > 16 µg/mL

Fill in the blank: the reported MIC of CCOC(=O)C1COc2cc(CNC3CCN(CCn4c(=O)ccc5ccc(C#N)cc54)CC3)ccc2O1 (stereo unspecified) is ____. > 16 µg/mL

Fill in the blank: the reported MIC of N#Cc1ccc2ccc(=O)n(CCN3CCC(NCc4ccc5c(c4)NC(=O)CS5(=O)=O)CC3)c2c1 is ____. > 16 µg/mL

Fill in the blank: the reported MIC of CN1C(=O)C(C)(C)Oc2ccc(CNC3CCN(CCn4c(=O)ccc5ccc(C#N)cc54)CC3)cc21 is ____. > 16 µg/mL

Fill in the blank: the reported MIC of c1ccc2c(c1)-c1ccccc1C2CCN1CCC(NCc2cc3c(cn2)OCCC3)CC1 is ____. > 16 µg/mL

Fill in the blank: the reported MIC of N#Cc1ccc2ccc(=O)n(CCN3CCC(NCc4ccc5c(c4)OCC(=O)N5)CC3)c2c1 is ____. > 16 µg/mL
